# key: entry, value: Fluorescence brightness, 100 nM DFHO
# Assay Info: Fluorescence brightness with DFHO
# Type: biochemical
# Test Settings: normalized 0 to 1 across all three chromophores; average ± SD of two protein concentrations
Reply with just the number.

mFAP2.2: SEQ ID NO:41 (protein, (1)..(1) optionally absent) MSRAAQLLPGTWQVTMTNEDGQTSQGQMHFQPRSPYTMDVVAQGTISDGRPIVGYGKVTVKTPDTLDVDITYPSLGNIKAQGQITMDSPTQFKFDATTKGAGNFTGRLTGTLQRQE :: 0.01

If you can, please state the reported Fluorescence brightness, 100 nM DFHO value of mFAP2b: SEQ ID NO:69; mFAP2.5 with V67I (protein, (1)..(1) optionally absent) MSRAAQLLPGTWQVTMTNEDGQTSQGQWHFQPRSPYTMDIVAQGTISDGRPIVGYGKATVKTPDTLDIDITYPSLGNIKAQGQITMDSPTQFKWDATTKGENDFHGRLTGTLQRQE . 0.01
